- System: Escherichia coli TOP10;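 note: peptides expressed intracellularly from a pBAD plasmid library in pooled LB shake-flask culture, induced with 0.3% L-arabinose, DNA abundance read by NGS, three biological replicates, DESeq2 with apeglm shrinkage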
- Test description: shrunken log2 fold change of peptide-encoding DNA abundance (4.5 h post-induction vs induction); higher = less antimicrobial activity (less host growth inhibition)
- Measurement parameters: time post-induction: 4.5 h; library: site-saturation at positions 5, 18, 19, 20
# label = satisfied if shrunken log2 fold change >= 0.0008 else not satisfied

- Sequence text: "RRIRPRPPRLPRPRPRPCEKPRP"
  Discrete label: "satisfied"
- Sequence text: "RRIRYRPPRLPRPRPRPAGWPRP"
  Discrete label: "satisfied"
- Sequence text: "RRIRFRPPRLPRPRPRPLKKPRP"
  Discrete label: "satisfied"

Check this sequence for shrunken log2 fold change at or above 0.0008: "RRIRARPPRLPRPRPRPVIYPRP"
not satisfied

Hi team, for "RRIRMRPPRLPRPRPRPFANPRP" , is the recorded shrunken log2 fold change at or above 0.0008?
not satisfied

Could you verify whether the entry "RRIRARPPRLPRPRPRPALQPRP" shows shrunken log2 fold change of no less than 0.0008?
satisfied

# check: shrunken log2 fold change of "RRIRTRPPRLPRPRPRPEASPRP" is greater than or equal to 0.0008
satisfied
